Collected Test A rating (disease control), value marked * values appear next to each entry.
# Tested on: Botrytis cinerea
# ASSAY_NAME: Test A: tomato Botrytis, preventive spray on tomato seedlings, visual disease rating
# TEST_CONDITIONS: tomato Botrytis; rating marked with asterisk (*), other test condition, not explained in the text shown
Marks after values point to notes of the source that are not given here.

Cc1nn(C)c(Nc2c(F)cc(Br)cc2F)c1-c1ccc(F)cc1Br    100* %

Recorded Test A rating (disease control), value marked * (molecule Cc1nn(C)c(Oc2c(F)cc(C#N)cc2F)c1-c1c(F)cc(F)cc1F ): 99* %

Looking up Cc1nn(C)c(Oc2ccc(C#N)cc2F)c1-c1ccc(F)cc1F , I see its Test A rating (disease control), value marked * listed as 100* %

Lookup result for Cc1nn(C)c(Oc2ccc(Cl)cc2F)c1-c1ccc(F)cc1Cl ; measured Test A rating (disease control), value marked *: 100* %

====

The following compounds are listed with their measured Test I rating (disease control) values.
# Test system: Blumeria graminis f. sp. tritici
# ASSAY_NAME: Test I: wheat powdery mildew, preventive spray on wheat seedlings, visual disease rating
# TEST_CONDITIONS: wheat powdery mildew; 100 = 100% disease control, 0 = no disease control relative to the controls
Field: value (include unit after the number)

As a guide, the following entries are already answered.
COc1ccc(Nc2c(-c3ccc(F)cc3Br)c(C)nn2C)c(Cl)c1    99%
COc1ccc(Nc2c(-c3c(F)cccc3F)c(C)nn2C)c(Cl)c1    99%
COc1cc(F)c(Nc2c(-c3ccc(F)cc3F)c(C)nn2C)c(F)c1    82%

Query COc1ccc(-c2c(C)nn(C)c2Nc2ccc(Cl)cc2Cl)c(Cl)c1 yields Test I rating (disease control) of 100%

According to the records, this compound Cc1nn(C)c(Oc2ccc(C#N)cc2F)c1-c1ccc(Cl)cc1F displays Test I rating (disease control) of 99%

====

# Tested on: Puccinia recondita f. sp. tritici
# ASSAY_NAME: Test H: wheat leaf rust, preventive spray on wheat seedlings, visual disease rating
# TEST_CONDITIONS: wheat leaf rust, sprayed the day before inoculation; 100 = 100% disease control, 0 = no disease control
PARAMETER_MEASURED: Test H rating (disease control)
Note: a bare number is incomplete; add the unit.

Example results:
Cc1nn(C)c(Nc2ccc(Cl)cc2Cl)c1-c1c(F)cccc1Cl [compound 78]    99%
Cc1nn(C)c(Nc2c(F)cc(F)cc2F)c1-c1c(F)cccc1Cl [compound 56]    97%

Let us move to another entry and its Test H rating (disease control).
What the record says about Cc1nn(C)c(Nc2ccc(Br)cc2Cl)c1-c1ccc(F)cc1Br [compound 173] : Test H rating (disease control) is 99%

====

Collected Test C rating (% disease control) values appear next to each entry.
# Tested on: Phytophthora infestans
# ASSAY_NAME: whole plant or invertebrate
# Format: in vivo
# TEST_CONDITIONS: tomato late blight, preventive spray; 100 = 100% disease control; rating without asterisk
Supply the numeric figure in %, leaving out any unit text.

Worked set:
Cc1nn(C)c(Nc2c(F)cc(F)cc2Br)c1-c1ccc(F)cc1Br    0
COc1ccc(-c2c(C)nn(C)c2Nc2c(F)cc(Cl)cc2Cl)c(F)c1    0
Cc1nn(C)c(Nc2c(F)cccc2Cl)c1-c1ccc(F)cc1Cl    0

// next entry
# compound CCOc1cc(F)c(-c2c(C)nn(C)c2Nc2c(Cl)cc(F)cc2Cl)c(F)c1 ; its Test C rating (% disease control) = 31
